assay: qHTS assay for small molecule agonists of the antioxidant response element (ARE) signaling pathway - cell viability counter screen (AID 743203); conditions: ARE-bla HepG2 viability, CellTiter-Glo luminescence, 16 h; series mostly up to 73.3 µM; further: nearly all actives have a fitted effect of over 55% in size
Records with an inconclusive call do not appear. Calls of active or inactive are those of the source. The call rests on the fitted dose curve.
Classes used: label 1 for active, label 0 for inactive

| MOLECULE | GROUP_LABEL |
| --- | --- |
| CN1CC(=O)N2[C@H](c3ccc4c(c3)OCO4)c3[nH]c4ccccc4c3C[C@@H]2C1=O | label 0 |
| Oc1cccc(Nc2ccccc2)c1 | label 0 |
| CC(=O)Nc1cc(S(=O)(=O)O)cc2cc(S(=O)(=O)O)c(N=Nc3ccccc3)c(O)c12 | label 0 |
| CCCC(C(=O)OCCN(CC)CC)(c1ccccc1)c1ccccc1 | label 0 |
| CC/C=C1/OC(=O)c2ccccc21 | label 0 |
| O=C1c2ccccc2C(=O)N1CCc1noc(-c2ccc(CN3CCCCCC3)s2)n1 | label 0 |
| CC(O)c1ccccc1 (stereo unspecified) | label 0 |
| CC1(C)[C@@H](OC(=O)CCC(=O)O)CC[C@]2(C)[C@H]3C(=O)C=C4[C@@H]5C[C@@](C)(C(=O)O)CC[C@]5(C)CC[C@@]4(C)[C@]3(C)CC[C@@H]12 | label 0 |
| CCCCCCC(C)(C)C(=O)O | label 0 |
| O=[N+]([O-])c1cc(C2CCCCC2)c(O)c([N+](=O)[O-])c1 | label 1 |
| C=CC(C)(CCC=C(C)C)OC(=O)CC(C)C (stereo unspecified) | label 0 |
| C/C=C(/C(=C/C)c1ccc(O)cc1)c1ccc(O)cc1 | label 0 |
| N#CCc1ccc(Cl)cc1Cl | label 0 |
| FC(F)(F)c1ccccc1Cl | label 0 |
| CC(=O)OCCN(CCOC(C)=O)c1ccc(N=Nc2ccc([N+](=O)[O-])cc2C#N)cc1 | label 0 |
| CCCCCCCCCCCCCCN(CCO)CCO | label 1 |
